target: T1, biotinylated nanobody-Fc fusion bFcNpD2 (C-terminal AviTag) (llama); assay: ELISA; conditions: one partner purified
T1 construct: as the VHH of m11; also called OROV FcNpD2 BAP; not shown: Fc (human IgG1 hinge and Fc domains 2 and 3), C-terminal, kept; AviTag, C-terminal, kept
T1 sequence (heavy, as listed by the source): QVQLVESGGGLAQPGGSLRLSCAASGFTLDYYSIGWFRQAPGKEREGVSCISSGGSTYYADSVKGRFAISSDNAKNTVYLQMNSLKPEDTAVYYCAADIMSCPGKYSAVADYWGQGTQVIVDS
Readout Label: binding result

OROV nucleoprotein (N) of the 2023-4 epidemic isolate AM0088, native (natural protein, also called OROV AM0088 N) MSEFIFNDVPQRTTSTFDPEAAYVAFEARYGQVLNAGVVRVFFLNQKKAKDVLRKTSRPMVDLTFGGVQFAMVNNHFPQFQSNPVPDNGLTLHRLSGYLARWAFTQMRSPIKQAEFRATVVVPLAEVKGCTWNDGDAMYLGFAAGAEMFLQTFTFFPLVIEMHRVLKDGMDVNFMKKVLRQRYGQKTAEQWMREEIVAVRAAFEAVGTLAWARTGFSPAARDFLRQFGIDI | binds
OROV nucleoprotein (N) in serum of patients with acute OROV infection (natural protein, N protein of the Oropouche virus infecting the patients; also called OROV N protein) MSEFIFNDVPQRTTSTFDPEAAYVAFEARYGQVLNAGVVRVFFLNQKKAKDVLRKTSRPMVDLTFGGVQFAMVNNHFPQFQSNPVPDNGLTLHRLSGYLARWAFTQMRSPIKQAEFRATVVVPLAEVKGCTWNDGDAMYLGFAAGAEMFLQTFTFFPLVIEMHRVLKDGMDVNFMKKVLRQRYGQKTAEQWMREEIVAVRAAFEAVGTLAWARTGFSPAARDFLRQFGIDI | binds
OROV nucleoprotein (N) of strain BeAn19991, native, in virus stocks and infected cells (natural protein, Oropouche virus strain BeAn19991, N protein of Oropouche virus strain BeAn19991, GenBank AJE24680.1, as made by the virus; also called OROV BeAn19991) MSEFIFNDVPQRTTSTFDPEAAYVAFEARYGQVLNAGVVRVFFLNQKKAKDVLRKTSRPMVDLTFGGVQFAMVNNHFPQFQSNPVPDNGLTLHRLSGYLARWAFTQMRSPIKQAEFRATVVVPLAEVKGCTWNDGDAMYLGFAAGAEMFLQTFTFFPLVIEMHRVLKDGMDVNFMKKVLRQRYGQKTAEQWMREEIVAVRAAFEAVGTLAWARTGFSPAARDFLRQFGIDI | binds
